Hey, just so you know, these numbers are from PubChem BioAssay (NCI).

# Test system: EKVX NSCLC
# experimental.details: NCI-60 one-dose screen, 48 h
# particulars: 10 µM unless noted
About 83,000 compounds went through this panel and 20% of them were active in at least one assay; those are over-represented in the sample as a whole. Active and inactive are the calls of the source. The calls were made as follows: active = growth percent below 10; inactive = the rest.
Outcomes: 1 = active, -1 = inactive

- compound: "CCc1ccc(NC(=O)N[C@@H](Cc2cccc(F)c2)C(=O)N[C@@H]2C(=O)N3CCC[C@H]3C(=O)N3CCCC[C@H]3C(=O)N[C@@H](CO)C(=O)N3C[C@H](C)C[C@H]3C(=O)O[C@H]2C)c(F)c1"
  class.name: -1
- compound: "O=c1cc(-c2ccccc2)nc2sc(-c3c[nH]c4ccc(F)cc34)nn12"
  class.name: -1
- compound: "Nc1c(C(=O)c2ccccc2)sc2nc(-c3cnccn3)cc(-c3cccs3)c12"
  class.name: -1
- compound: "Nc1nc(-c2cccc([N+](=O)[O-])c2)c(N=Nc2ccccc2Cl)s1"
  class.name: -1
- compound: "CCOC(=O)c1c(NC(=O)c2ccc(F)cc2F)sc2c1CCC(=O)C2"
  class.name: -1
- compound: "Cc1cn(-c2cc(NC(=O)c3cncc(C#Cc4cnc5ccc(O[C@@H]6CCOC6)nn45)c3)cc(C(F)(F)F)c2)cn1"
  class.name: 1
- compound: "Cc1ccc(-c2cc(-c3ccc(N(C)C)cc3)n3c(n2)nc2ccccc23)cc1"
  class.name: -1
- compound: "CN1CCN(c2nc(-c3csc(-c4ccncc4)n3)cc3ccccc23)CC1"
  class.name: -1
- compound: "Cc1ccc(-c2csc(N/N=C/c3nc4ccccc4n3C3CC3)n2)cc1"
  class.name: -1
- compound: "Cc1[nH]nc2ccc(-c3nc4cnc(N5CCN(C)CC5)cn4c3Nc3ccc(F)cc3Br)cc12"
  class.name: -1
- compound: "COc1ccc(-c2cc(-c3cccc4ccccc34)n3c(n2)nc2ccccc23)cc1"
  class.name: -1
- compound: "CN(C)C(=O)c1ccccc1-n1cnc2ccccc2c1=O"
  class.name: -1
- compound: "C=CCn1c(SCC(=O)Nc2cccc(C(=O)/C=C/c3ccccc3)c2)nc2ccccc2c1=O"
  class.name: -1
- compound: "CC(C)SC1=NC(=C(C(=N1)NC2=ClC=CC=C2)C#N)C3=CC=CC=C3"
  class.name: -1
- compound: "CNC(=O)c1cc(Oc2ccc3nc(NC(=O)c4ccc(CN5CCN(C)CC5)c(C(F)(F)F)c4)sc3c2)ccn1"
  class.name: -1
- compound: "COc1ccc(Oc2ccc(C3CC(c4cc(OC)c(OC)c(OC)c4)=NN3C(C)=O)cc2)cc1 (configuration not stated)"
  class.name: -1
- compound: "Cc1ccc(/C=C/CC(=O)Nc2ccc(C(=O)Nc3ccc(F)cc3N)cc2)cn1"
  class.name: -1
- compound: "CC(=O)Nc1ccc(C)c(Nc2cc(-c3ccc(-n4cccn4)cc3)[nH]n2)c1"
  class.name: -1
- compound: "COc1ccc(-c2oc3cc(O)cc(O)c3c(=O)c2OC)cc1O"
  class.name: -1
- compound: "Cc1ccc(NC(=O)c2ccc(CN3CCN(C)CC3)c(C(F)(F)F)c2)cc1Oc1ccc(-c2[nH]nc3ncnc(N)c23)cc1"
  class.name: -1
- compound: "c1ccc(-c2c(-c3ccccc3)[n+](Cc3ccc4ccccc4c3)c(-c3ccccc3)n2Cc2ccc3ccccc3c2)cc1"
  class.name: 1
- compound: "C=C1C(=O)O[C@@H]2C[C@@H](C)CCC(=O)[C@](C)(OC(C)=O)C[C@H](OC(=O)/C(C)=C\\C)[C@@H]12"
  class.name: -1
- compound: "O=C(CN1C(=O)CSC1=O)Nc1ccc(C(=O)/C=C/c2cc3ccccc3nc2Cl)cc1"
  class.name: -1
- compound: "C(=C(\\C1=NCCN1)n1cnc2ccccc21)/c1cccc2ccccc12"
  class.name: -1
- compound: "COc1ccc(-c2no[n+]([O-])c2Nc2ccccc2Br)cc1"
  class.name: -1
- compound: "O=C(Nc1cc(Cl)cc(Cl)c1)Nc1nc2ccc([N+](=O)[O-])cc2s1"
  class.name: 1
- compound: "NC(=S)N/N=C(/C=C/c1cn(-c2ccccc2)nc1-c1ccc(Cl)cc1)c1cc2ccccc2oc1=O"
  class.name: -1
